- study-target: NADPH oxidase 5 (Homo sapiens) (UniProt Q96PH1)
- Sequence (Q96PH1 whole entry, looked up): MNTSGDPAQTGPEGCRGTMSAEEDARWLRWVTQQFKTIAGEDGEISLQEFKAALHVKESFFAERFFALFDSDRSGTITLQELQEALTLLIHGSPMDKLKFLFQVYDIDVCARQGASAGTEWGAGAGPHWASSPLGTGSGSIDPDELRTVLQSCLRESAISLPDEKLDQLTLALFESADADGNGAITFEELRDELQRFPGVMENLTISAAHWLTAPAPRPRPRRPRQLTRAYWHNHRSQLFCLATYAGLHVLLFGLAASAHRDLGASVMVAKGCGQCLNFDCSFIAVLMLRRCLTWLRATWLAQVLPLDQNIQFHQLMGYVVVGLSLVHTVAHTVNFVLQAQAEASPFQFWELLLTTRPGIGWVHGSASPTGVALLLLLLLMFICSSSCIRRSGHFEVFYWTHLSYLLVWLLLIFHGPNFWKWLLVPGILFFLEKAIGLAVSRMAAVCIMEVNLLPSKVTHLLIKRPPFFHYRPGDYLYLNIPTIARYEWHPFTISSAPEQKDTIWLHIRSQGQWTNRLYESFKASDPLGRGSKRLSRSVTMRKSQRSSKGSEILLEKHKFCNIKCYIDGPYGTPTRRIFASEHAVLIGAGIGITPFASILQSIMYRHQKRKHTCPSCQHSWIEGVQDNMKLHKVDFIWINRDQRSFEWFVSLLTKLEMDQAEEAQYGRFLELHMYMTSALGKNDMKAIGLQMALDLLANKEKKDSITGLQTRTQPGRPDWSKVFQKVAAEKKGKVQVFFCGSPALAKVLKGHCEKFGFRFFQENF
- method-notes: NOX5-dependent H2O2 signal modulators, primary screen, NOX inhibitor project, cell-based, HEK293-NOX5, Amplex Red fluorescence (AID 1161)
- applied-conditions: HEK293-NOX5, ionomycin, 45 min, higher = more signal
Decide by z-score: equal to or exceeding 0.04 means yes, less means no.

State whether the measured z-score reaches 0.04, counting equality as reaching it, for CO[C@H]1O[C@H](CO)[C@@H](OC(=O)Nc2cccc(F)c2)[C@H](OC(=O)Nc2ccc3c(c2)OCO3)[C@@H]1OC(=O)Nc1ccc2c(c1)OCO2 no

Answer whether z-score of [N-]=[N+]=Nc1ccccc1C[C@@]1(C(=O)NCc2ccccc2)N=C(c2ccc(OCCCO)cc2)O[C@@H]1c1ccccc1 is greater than or equal to 0.04. no

Is the recorded value of z-score equal to or greater than 0.04 for this compound? Cc1ccc(S[C@]2(C(=O)NCc3ccccc3)CC(=O)N(Cc3ccccc3Cl)[C@@H]2c2ccc(CO)cc2)cc1 no

hey, is z-score for this one >= 0.04? CCCCCN1CC=CC23O[C@@H]4/C=C\CCCOC(=O)C4[C@H]2C(=O)N(CCCCCO)[C@@H]3C1=O (stereo partly drawn) yes

For this compound, is measured z-score 0.04 or higher? COc1ccc(CCNC(=O)[C@@H]2c3ccccc3C(=O)N(C(C)C)[C@H]2c2ccc(CO)cc2)cc1 yes

Test whether the compound C=C(C(=O)CC[C@@H](OC(=O)c1ccccc1-c1ccccc1C(=O)O)c1ccc(CO)o1)C(C)C records z-score of 0.04 or higher. no

Does the reported z-score for COC(=O)[C@@]1(Cc2ccc(F)cc2)[C@H]2c3cc(C(=O)N4CCCC4)n(CCSCCO)c3C[C@H]2CN1C(=O)c1ccccc1 fall at or above the 0.04 mark? no
